Please go through the items and note down their protein stability index.
B1: INTS4 (parent)
chain: IRLVDDAFGKICHMVSDGSWVVRV

# Variants of: B1
# measurementDescription: protein stability index of a GFP-peptide fusion (GPS, HEK-293T) (PSI 1-6); higher = more stable;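 also: lentivirally expressed fusions sorted by FACS into six bins by GFP to DsRed ratio, PSI derived from sequencing read proportions per bin multiplied by bin number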
# reportedConditions: c terminus: a fixed tail appended
Provide a numeric answer; units are not to be included.

Prompt: Return value of protein stability index for input `D17S` , no commentary.
Completion: 3.98

Prompt: Look up and report measured protein stability index for this entry: `S19A`
Completion: 2.89

Prompt: Supply protein stability index value. Item: `R2V`
Completion: 4.66

Prompt: Using the record for `H13K` , state its measured protein stability index.
Completion: 3.46

Prompt: Give reported protein stability index value for `S19P`
Completion: 3.43

Prompt: Name the recorded protein stability index of the variant listed here: `S16D`
Completion: 1.29

Prompt: Kindly indicate its recorded protein stability index. Item: `D17Q`
Completion: 3.32

Prompt: Give the reported value of protein stability index for this record: `I1F`
Completion: 4.01

Prompt: Give a short answer stating reported protein stability index for `S16Q` .
Completion: 2.47

Prompt: Input `I11Q` , output reported protein stability index.
Completion: 2.63

Prompt: Please list protein stability index recorded for the variant `V22H`
Completion: 2.78
